# credit: patent US20230287082A1

# STUDY_SYSTEM: human NKp30 (human) (UniProt O14931)
# Sequence (O14931 19-135 limits assumed): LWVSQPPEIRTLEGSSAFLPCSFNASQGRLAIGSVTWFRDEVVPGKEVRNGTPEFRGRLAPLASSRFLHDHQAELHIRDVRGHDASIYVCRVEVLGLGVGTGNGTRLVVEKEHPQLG
# METHOD: BLI, immunoligand on anti-hFc tip
// reported kon per item
QUANTITY_KIND: kon (M⁻¹ s⁻¹)

BINDER | TEST_RESULT
ΔB7-H6_S3#19-SEED-PGLALA (bispecific antibody, part only; not given: SEED Fc chains and hu225 Fab, part only) chain, part: DLKVEMMAGGTQITPLNDNVTIFCNIFYSQPLNITQMGITWFWKSLTFDKEVKVFEFWGDHQEAFRPGAIVSPWRLKSGDASLRLPGIQLEEAGEYRCEVVVTPYKAQGTVQLEVVASPAS | 673000
ΔB7-H6_S2#7-SEED-PGLALA (bispecific antibody, part only; not given: SEED Fc chains and hu225 Fab, part only) chain, part: DLKVEMMAGGTQITPLNDNVTIFCNIFYSQPLNITSMGITWFWKSLTFDKEVKVFEFYGDHQEAFRPGAIVSPWRLKSGDASLRLPGIQLEEAGEYRCEVIVTPYKAQGTVQLEVVTSPAS | 504000
ΔB7-H6_S2#12-SEED-PGLALA (bispecific antibody, part only; not given: SEED Fc chains and hu225 Fab, part only) chain, part: DLKVEMMAGGTQITPLNDNVTIFCNIFYSQPLNITHMGITWLWKSLTFDKEVKVFEFYGDHQEAFRPGAIVSPWRLKSGDASLRLPGIQLEEAGEYRCEVVVTPLKAQGTVQLEVVASPAS | 556000
ΔB7-H6_S2#4-SEED-PGLALA (bispecific antibody, part only; not given: SEED Fc chains and hu225 Fab, part only) chain, part: DLKVEMMAGGTQITPLNDNVTIFCNIFYSQPLNITHMGITWFWKSLTFDKEVKVFEFYADHQEAIRPGAIVSPWRLKSGDASLRLPGIQLEEAGEYRCEVVVTPYKAQGTVQLEVVASPAS | 830000
ΔB7-H6_S3#26-SEED-PGLALA (bispecific antibody, part only; not given: SEED Fc chains and hu225 Fab, part only) chain, part: DLKVEMMAGGTQITPLNDNVTIFCNIFYSQPLNITTMGITWFWKSLTFDKEVKVFEFWDDHQEAFRPGAIVSPWRLKSGDASLRLPGIQLEEAGEYRCEVVVTPYKAQGTVQLEVVASPAS | 409000
